Biological target: human leukocyte elastase (RPMI 1788)
Test: Elastase activity in human leukocytes RPMI 1788
Format: biochemical
Details: 120 min
metric: pIC50
// pIC50 here means minus log10 of the molar concentration (mol/L)

Exercise: Fill blank: measured pIC50 of the compound "O=S(=O)(O)c1cc2c(O)c(c1)Cc1cc(S(=O)(=O)O)cc(c1O)Cc1cc(S(=O)(=O)O)cc(c1O)Cc1cc(S(=O)(=O)O)cc(c1O)Cc1cc(S(=O)(=O)O)cc(c1O)Cc1cc(S(=O)(=O)O)cc(c1O)C2" is ____.
Solution: 4.24

Exercise: Fill blank: measured pIC50 of the compound "COc1c2cc(S(=O)(=O)O)cc1Cc1cc(S(=O)(=O)O)cc(c1OC)Cc1cc(S(=O)(=O)O)cc(c1OC)Cc1cc(S(=O)(=O)O)cc(c1OC)Cc1cc(S(=O)(=O)O)cc(c1OC)Cc1cc(S(=O)(=O)O)cc(c1OC)Cc1cc(S(=O)(=O)O)cc(c1OC)Cc1cc(S(=O)(=O)O)cc(c1OC)C2" is ____.
Solution: 4.35

Exercise: Fill blank: measured pIC50 of the compound "O=S(=O)(O)c1cc2c(O)c(c1)Cc1cc(S(=O)(=O)O)cc(c1O)Cc1cc(S(=O)(=O)O)cc(c1O)Cc1cc(S(=O)(=O)O)cc(c1O)C2" is ____.
Solution: 4.60

Exercise: Fill blank: measured pIC50 of the compound "COc1c2cc(S(=O)(=O)[O-])cc1Cc1cc(S(=O)(=O)[O-])cc(c1OC)Cc1cc(S(=O)(=O)[O-])cc(c1OC)Cc1cc(S(=O)(=O)[O-])cc(c1OC)Cc1cc(S(=O)(=O)[O-])cc(c1OC)Cc1cc(S(=O)(=O)[O-])cc(c1OC)C2.[Na+].[Na+].[Na+].[Na+].[Na+].[Na+]" is ____.
Solution: 3.79

Exercise: Fill blank: measured pIC50 of the compound "O=S(=O)(O)c1cc2c(O)c(c1)Cc1cc(S(=O)(=O)O)cc(c1O)Cc1cc(S(=O)(=O)O)cc(c1O)Cc1cc(S(=O)(=O)O)cc(c1O)Cc1cc(S(=O)(=O)O)cc(c1O)Cc1cc(S(=O)(=O)O)cc(c1O)Cc1cc(S(=O)(=O)O)cc(c1O)Cc1cc(S(=O)(=O)O)cc(c1O)C2" is ____.
Solution: 4.25

====

Target: IC-21 macrophage elastase
Experiment: Elastase activity in IC-21 macrophages
Type: biochemical, mouse
Conditions: 120 min
metric: pIC50
// pIC50 here means minus log10 of the molar concentration (mol/L)

Exercise: Fill blank: measured pIC50 of the compound "COc1c2cc(S(=O)(=O)[O-])cc1Cc1cc(S(=O)(=O)[O-])cc(c1OC)Cc1cc(S(=O)(=O)[O-])cc(c1OC)Cc1cc(S(=O)(=O)[O-])cc(c1OC)C2.[Na+].[Na+].[Na+].[Na+]" is ____.
Solution: 3.95

Exercise: Fill blank: measured pIC50 of the compound "O=S(=O)(O)c1cc2c(O)c(c1)Cc1cc(S(=O)(=O)O)cc(c1O)Cc1cc(S(=O)(=O)O)cc(c1O)Cc1cc(S(=O)(=O)O)cc(c1O)Cc1cc(S(=O)(=O)O)cc(c1O)Cc1cc(S(=O)(=O)O)cc(c1O)Cc1cc(S(=O)(=O)O)cc(c1O)Cc1cc(S(=O)(=O)O)cc(c1O)C2" is ____.
Solution: 4.35
